Sourced from the Human Domainome abundance scans (Beltran et al. 2025)

B1: POU domain, class 2, transcription factor 1, residues 285 to 354; numbered along this chain, P14859 (parent)
chain: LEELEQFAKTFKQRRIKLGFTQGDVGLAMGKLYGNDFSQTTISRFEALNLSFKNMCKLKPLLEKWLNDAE

- Variants of: B1
- ASSAY_PROCEDURE: abundance fitness (aPCA) (normalised: wild type 0, dead -1); higher = more abundant; growth selection in yeast, the domain comes from the species named
- MEASUREMENT_CONTEXT: Homo sapiens
// reported abundance fitness per item
Write the number on its own, no unit after it.

D36N -0.043
S43R 0.018
R15I -1.1

# next variant below
Query :: Consider the variant E63K and give its recorded abundance fitness.
Result :: -0.126
